# assay procedure: Angle of repose of crystals
# Format: physicochemical
Answer each item with its documented Angle of Repose.

[in] Look at this molecule and give its reported Angle of Repose. Cc1cc(CCC(=O)OCC(C)(C)C2OCC3(CO2)COC(C(C)(C)COC(=O)CCc2cc(C)c(O)c(C(C)(C)C)c2)OC3)cc(C(C)(C)C)c1O (centres unmarked) [Example 3]
[out] 47 °

[in] Look at this molecule and give its reported Angle of Repose. Cc1cc(CCC(=O)OCC(C)(C)C2OCC3(CO2)COC(C(C)(C)COC(=O)CCc2cc(C)c(O)c(C(C)(C)C)c2)OC3)cc(C(C)(C)C)c1O (centres unmarked) [Example 2]
[out] 45 °

[in] Look at this molecule and give its reported Angle of Repose. Cc1cc(CCC(=O)OCC(C)(C)C2OCC3(CO2)COC(C(C)(C)COC(=O)CCc2cc(C)c(O)c(C(C)(C)C)c2)OC3)cc(C(C)(C)C)c1O (centres unmarked) [Comparative Example 2, reference compound]
[out] 53 °

[in] Look at this molecule and give its reported Angle of Repose. Cc1cc(CCC(=O)OCC(C)(C)C2OCC3(CO2)COC(C(C)(C)COC(=O)CCc2cc(C)c(O)c(C(C)(C)C)c2)OC3)cc(C(C)(C)C)c1O (centres unmarked) [Example 1]
[out] 45 °

[in] Look at this molecule and give its reported Angle of Repose. Cc1cc(CCC(=O)OCC(C)(C)C2OCC3(CO2)COC(C(C)(C)COC(=O)CCc2cc(C)c(O)c(C(C)(C)C)c2)OC3)cc(C(C)(C)C)c1O (centres unmarked) [Comparative Example 1, reference compound]
[out] 50 °

* * *

Answer each item with its documented Angle of Spatula.
# assay procedure: Angle of spatula of crystals
# Format: physicochemical
All answers are understood in °, so give the number only.

[in] Look at this compound and give its reported Angle of Spatula. Cc1cc(CCC(=O)OCC(C)(C)C2OCC3(CO2)COC(C(C)(C)COC(=O)CCc2cc(C)c(O)c(C(C)(C)C)c2)OC3)cc(C(C)(C)C)c1O (centres unmarked) [Example 2]
[out] 58

[in] Look at this compound and give its reported Angle of Spatula. Cc1cc(CCC(=O)OCC(C)(C)C2OCC3(CO2)COC(C(C)(C)COC(=O)CCc2cc(C)c(O)c(C(C)(C)C)c2)OC3)cc(C(C)(C)C)c1O (centres unmarked) [Comparative Example 1, reference compound]
[out] 65

[in] Look at this compound and give its reported Angle of Spatula. Cc1cc(CCC(=O)OCC(C)(C)C2OCC3(CO2)COC(C(C)(C)COC(=O)CCc2cc(C)c(O)c(C(C)(C)C)c2)OC3)cc(C(C)(C)C)c1O (centres unmarked) [Example 1]
[out] 57

[in] Look at this compound and give its reported Angle of Spatula. Cc1cc(CCC(=O)OCC(C)(C)C2OCC3(CO2)COC(C(C)(C)COC(=O)CCc2cc(C)c(O)c(C(C)(C)C)c2)OC3)cc(C(C)(C)C)c1O (centres unmarked) [Comparative Example 2, reference compound]
[out] 74

[in] Look at this compound and give its reported Angle of Spatula. Cc1cc(CCC(=O)OCC(C)(C)C2OCC3(CO2)COC(C(C)(C)COC(=O)CCc2cc(C)c(O)c(C(C)(C)C)c2)OC3)cc(C(C)(C)C)c1O (centres unmarked) [Example 3]
[out] 58
